assay: Ocular tissue concentrations (aqueous humor, vitreous humor, iris, retina, choroid, cornea) after topical ocular, subcutaneous and intravitreal administration; assay type: in vivo, New Zealand White rabbits; conditions: New Zealand White, rabbit, choroid homogenate, subcutaneous, 5 mg/kg/dose, Choroid homogenate, 0.5 hr, OS; sodium salt, subcutaneous 5 mg/kg/dose, Group 2; read-out: Choroid Conc. (ng/mL) OS
METRIC: concentration at 0.5 h (ng/mL)
Give bare numbers, in ng/mL.

q: Entry "COC(=O)N[C@@H](Cc1ccccc1)C(=O)N[C@@H](Cc1ccc(NS(=O)(=O)O)cc1)c1csc(-c2cccs2)n1" has what concentration at 0.5 h?
a: 25.6

---

assay: Ocular tissue concentrations (aqueous humor, vitreous humor, iris, retina, choroid, cornea) after topical ocular, subcutaneous and intravitreal administration; type: in vivo, New Zealand White rabbits; conditions: New Zealand White, rabbit, vitreous humor, topical, 1.2 mg/eye, Group 1 topical ocular 1.2 mg/eye; 1.0 hr; read-out: vitreous humor Average Conc.
Structures can show the parent of a compound that is named as a salt.
METRIC: concentration at 1 h (ng/g)
Answers are plain numbers, in ng/g.

q: Entry COC(=O)N[C@@H](Cc1ccccc1)C(=O)N[C@@H](Cc1ccc(NS(=O)(=O)O)cc1)c1csc(-c2cccs2)n1 [Compound 1 sodium salt] has what concentration at 1 h?
a: 2.09

---

assay: Ocular tissue concentrations (aqueous humor, vitreous humor, iris, retina, choroid, cornea) after topical ocular, subcutaneous and intravitreal administration; format: in vivo, New Zealand White rabbits; details: New Zealand White, rabbit, cornea homogenate, subcutaneous, 5 mg/kg/dose, TABLE 16: Cornea homogenate, 0.5 hr, OD; free acid, subcutaneous 5 mg/kg/dose, Group 3; read-out: Cornea Conc. (ng/mL) OD
METRIC: concentration at 0.5 h (ng/mL)
One number for each entry, in ng/mL.

q: Entry "COC(=O)N[C@@H](Cc1ccccc1)C(=O)N[C@@H](Cc1ccc(NS(=O)(=O)O)cc1)c1csc(-c2cccs2)n1" has what concentration at 0.5 h?
a: 0.55

---

assay: Ocular tissue concentrations (aqueous humor, vitreous humor, iris, retina, choroid, cornea) after topical ocular, subcutaneous and intravitreal administration; format: in vivo, New Zealand White rabbits; settings: New Zealand White, rabbit, aqueous humor, other: intravitreal, 2.5 mg per eye, Group 5 intravitreal 2.5 mg per eye; 6.0 hr; read-out: aqueous humor Average Conc.
METRIC: concentration at 6 hr (ng/g)
Numbers only, in ng/g.

q: Entry COC(=O)N[C@@H](Cc1ccccc1)C(=O)N[C@@H](Cc1ccc(NS(=O)(=O)O)cc1)c1csc(-c2cccs2)n1 [Compound 1 free acid] has what concentration at 6 hr?
a: 26400

---

Experiment: Ocular tissue concentrations (aqueous humor, vitreous humor, iris, retina, choroid, cornea) after topical ocular, subcutaneous and intravitreal administration
Type: in vivo, New Zealand White rabbits
Details: New Zealand White, rabbit, iris, subcutaneous, 5 mg/kg/dose, Iris, 4 hr, OS; free acid, subcutaneous 5 mg/kg/dose, Group 3; read-out: Iris Conc. (ng/g) OS
Experimental: To measure the concentration of Compound 1 in plasma and ocular tissues following topical ocular, subcutaneous, and intravitreal administration, New Zealand White rabbits were administered Compound 1, and plasma and ocular samples were collected at pre-determined time points. […] Ocular tissue samples from both eyes of each animal were collected and weights were recorded. Plasma and ocular tissue sample concentrations of Compound 1 were determined by LC-MS/MS. […]
METRIC: concentration at 4 h (ng/g)
Answers are plain numbers, in ng/g.

q: Entry COC(=O)N[C@@H](Cc1ccccc1)C(=O)N[C@@H](Cc1ccc(NS(=O)(=O)O)cc1)c1csc(-c2cccs2)n1 [Compound 1] has what concentration at 4 h?
a: 16.9

---

experiment: Ocular tissue concentrations (aqueous humor, vitreous humor, iris, retina, choroid, cornea) after topical ocular, subcutaneous and intravitreal administration; format: in vivo, New Zealand White rabbits; settings: New Zealand White, rabbit, iris, other: intravitreal, 2.5 mg/eye, Iris, 48 hr, average, intravitreal 2.5 mg/eye (group 5); read-out: Avg.
METRIC: concentration at 48 h (ng/g)
Answers are plain numbers, in ng/g.

q: Entry COC(=O)N[C@@H](Cc1ccccc1)C(=O)N[C@@H](Cc1ccc(NS(=O)(=O)O)cc1)c1csc(-c2cccs2)n1 [Compound 1] has what concentration at 48 h?
a: 16800

---

test: Ocular tissue concentrations (aqueous humor, vitreous humor, iris, retina, choroid, cornea) after topical ocular, subcutaneous and intravitreal administration; type: in vivo, New Zealand White rabbits; conditions: New Zealand White, rabbit, iris, subcutaneous, 5 mg/kg/dose, Iris, 2 hr; sodium salt, subcutaneous 5 mg/kg/dose, Group 2; read-out: Iris Average
METRIC: concentration at 2 hr (ng/g)
Numbers only, in ng/g.

q: Entry "COC(=O)N[C@@H](Cc1ccccc1)C(=O)N[C@@H](Cc1ccc(NS(=O)(=O)O)cc1)c1csc(-c2cccs2)n1" has what concentration at 2 hr?
a: 29.7

---

assay: Ocular tissue concentrations (aqueous humor, vitreous humor, iris, retina, choroid, cornea) after topical ocular, subcutaneous and intravitreal administration; type: in vivo, New Zealand White rabbits; settings: New Zealand White, rabbit, choroid, other: intravitreal, 2.5 mg/eye, Choroid, 6.0 hr, left eye, intravitreal 2.5 mg/eye (group 5), individual animals; read-out: Conc. (ng/g) OS
METRIC: concentration at 6 hr (ng/g)
Give bare numbers, in ng/g.

q: Entry "COC(=O)N[C@@H](Cc1ccccc1)C(=O)N[C@@H](Cc1ccc(NS(=O)(=O)O)cc1)c1csc(-c2cccs2)n1" has what concentration at 6 hr?
a: 697000

---

test: Ocular tissue concentrations (aqueous humor, vitreous humor, iris, retina, choroid, cornea) after topical ocular, subcutaneous and intravitreal administration; type: in vivo, New Zealand White rabbits; conditions: New Zealand White, rabbit, iris, other: intravitreal, 2.5 mg/eye, Iris, 6.0 hr; sodium salt, intravitreal 2.5 mg/eye, Group 4; read-out: Iris Avg.
METRIC: concentration at 6 h (ng/g)
Answers are plain numbers, in ng/g.

q: Entry "COC(=O)N[C@@H](Cc1ccccc1)C(=O)N[C@@H](Cc1ccc(NS(=O)(=O)O)cc1)c1csc(-c2cccs2)n1" has what concentration at 6 h?
a: 352000

---

assay: Ocular tissue concentrations (aqueous humor, vitreous humor, iris, retina, choroid, cornea) after topical ocular, subcutaneous and intravitreal administration; assay type: in vivo, New Zealand White rabbits; settings: New Zealand White, rabbit, vitreous humor, subcutaneous, 5 mg/kg, Group 2 subcutaneous 5 mg/kg; 1.0 hr; read-out: vitreous humor Average Conc.
Counter-ions that a name gives are not always drawn.
METRIC: concentration at 1 hr (ng/g)
Answers are plain numbers, in ng/g.

q: Entry COC(=O)N[C@@H](Cc1ccccc1)C(=O)N[C@@H](Cc1ccc(NS(=O)(=O)O)cc1)c1csc(-c2cccs2)n1 [Compound 1 sodium salt] has what concentration at 1 hr?
a: 0.45

---

test: Plasma concentrations and pharmacokinetic parameters after topical ocular, subcutaneous and intravitreal administration; assay type: in vivo, New Zealand White rabbits; details: New Zealand White, rabbit, plasma, other: intravitreal, 2.5 mg, plasma; intravitreal 2.5 mg/eye (~1.55 mg/kg), solution; read-out: AUClast (± SE)
Counter-ions that a name gives are not always drawn.
METRIC: AUC(0-t) (ng·h/mL)
One number for each entry, in ng·h/mL.

q: Entry COC(=O)N[C@@H](Cc1ccccc1)C(=O)N[C@@H](Cc1ccc(NS(=O)(=O)O)cc1)c1csc(-c2cccs2)n1 [Compound 1 sodium salt] has what AUC(0-t)?
a: 953

---

assay: Ocular tissue concentrations (aqueous humor, vitreous humor, iris, retina, choroid, cornea) after topical ocular, subcutaneous and intravitreal administration; type: in vivo, New Zealand White rabbits; settings: New Zealand White, rabbit, choroid, other: intravitreal, 2.5 mg/eye, Choroid, 24 hr; sodium salt, intravitreal 2.5 mg/eye, Group 4; read-out: Choroid Avg.
METRIC: concentration at 24 hr (ng/g)
One number for each entry, in ng/g.

q: Entry "COC(=O)N[C@@H](Cc1ccccc1)C(=O)N[C@@H](Cc1ccc(NS(=O)(=O)O)cc1)c1csc(-c2cccs2)n1" has what concentration at 24 hr?
a: 139000

---

assay: Ocular tissue concentrations (aqueous humor, vitreous humor, iris, retina, choroid, cornea) after topical ocular, subcutaneous and intravitreal administration; format: in vivo, New Zealand White rabbits; conditions: New Zealand White, rabbit, retina, subcutaneous, 5 mg/kg/dose, Retina, 2 hr, OD; free acid, subcutaneous 5 mg/kg/dose, Group 3; read-out: Retina Conc. (ng/g) OD
METRIC: concentration at 2 h

q: Entry COC(=O)N[C@@H](Cc1ccccc1)C(=O)N[C@@H](Cc1ccc(NS(=O)(=O)O)cc1)c1csc(-c2cccs2)n1 [Compound 1] has what concentration at 2 h?
a: 6.31 ng/g

---

test: Ocular tissue concentrations (aqueous humor, vitreous humor, iris, retina, choroid, cornea) after topical ocular, subcutaneous and intravitreal administration; format: in vivo, New Zealand White rabbits; conditions: New Zealand White, rabbit, retina, subcutaneous, 5 mg/kg/dose, TABLE 16: Retina, 1 hr; free acid, subcutaneous 5 mg/kg/dose, Group 3; read-out: Retina Average
METRIC: concentration at 1 h (ng/g)
Give bare numbers, in ng/g.

q: Entry "COC(=O)N[C@@H](Cc1ccccc1)C(=O)N[C@@H](Cc1ccc(NS(=O)(=O)O)cc1)c1csc(-c2cccs2)n1" has what concentration at 1 h?
a: 10.2
